Cited source: PubChem BioAssay (NCI)

Examples of compounds with documented growth follow.
Tested on: OVCAR-4 ovarian
protocol-notes: NCI-60 one-dose screen, 48 h (100 = growth as untreated, 0 = no growth, -100 = all killed)
condition-parameters: 10 µM
Compounds without any hit were thinned out: in the full panel of roughly 83,000, 20% have a hit.
Write the value in % as a bare number.

Known results for compounds:
{"compound": "COc1ccc(-c2cc(-c3ccccc3)nc(SCCCC(=O)NO)n2)cc1", "growth, %": 13.5}
{"compound": "COc1ccc(/C=C2\\CCCC3=C2NC(N)=NC3c2ccc(OC)c(OC)c2)cc1OC (stereo not drawn)", "growth, %": 53.4}

Item NC1=CC(=O)C(=O)c2cccnc21 with OVCAR-4 ovarian - growth?
91.8

----------
Measured growth, listed per entry.
Test system: HT29 colon
protocol-notes: NCI-60 one-dose screen, 48 h (100 = growth as untreated, 0 = no growth, -100 = all killed)
condition-parameters: 10 µM
This is part of a sample that, as a whole, favours compounds with a hit. Of some 83,000 tested, about 20% had one in any assay.
Output spec: scalar in %, unitless text.

{"molecule": "CC(C)(C)OC(=O)N1CCc2c(sc3ncnc(N/N=C/c4cccc(Br)c4)c23)C1", "measurement-unit": "%", "measured-result": 47.7}

Looking for the measured growth of N#Cc1c(-c2ccc(Cl)cc2)n(O)c2ccccc12 , can you help?
82.8

What value of growth has been recorded for this entry: COc1ccccc1-n1c(-c2sc(NC(C)=O)nc2C)n[nH]c1=S
104

Give the measured growth of O=C(Nc1ccc(OS(=O)(=O)c2ccccc2)cc1)C1CCCCC1 .
39.3

Recorded growth of Fc1ccc(C(c2ccc(F)cc2)C(Cl)Cl)cc1 , please.
97.7

Which measured growth value corresponds to COc1cc(C2CC(c3cc(Cl)c(C)cc3O)=NN2c2ccc(S(N)(=O)=O)cc2)cc(OC)c1OC (stereo not given) ?
1.52

Look up growth for this molecule: COc1ccc2cc(-c3nc4ccccc4s3)c(Cl)nc2c1OC
104

# growth lookup, item CC(C)=CCC/C(C)=C/CC/C(C)=C/CC/C=C(\C)CC/C=C(\C)CCC(=O)Nc1ccn(C2OC(CO)C(O)C2(F)F)c(=O)n1 (stereo not given)
36.2

Record request: growth value, item CC(C)(C)OC(=O)CN1CCc2c(sc3ncnc(N/N=C/c4cccc5ccccc45)c23)C1
45

// returns reported growth for input N#CC1=C(N)Oc2cc(N)ccc2C1c1cccnc1 (stereo not given)
93.8

I would be grateful if you could share the reported growth for N=C1S/C(=C/c2ccc(-c3ccc4c(c3)C(=O)NC4=O)o2)C(=O)N1c1ccc(Br)cc1 .
21.9

Could you tell me which growth is on file for Cc1ccc(Cl)cc1NC(=O)CCl ?
82.9

----------
Tested on: NCI-H23 lung
protocol-notes: NCI-60 one-dose screen, 48 h
condition-parameters: 10 µM
This is part of a sample that, as a whole, favours compounds with a hit. Of some 83,000 tested, about 20% had one in any assay. Active and inactive are the calls of the source. How the source made its calls: active means growth percent below 10; inactive means the rest.
Write down one outcome, taken from active, inactive

Test call, this compound: COc1cc(-c2nn(-c3cccc(NC(=O)CN4CCOCC4)c3)cc2-c2cccnc2)ccc1Cl
inactive

Recorded test outcome, item CCN1C(=O)CC(SC2CC(=O)N(CC)C2=O)C1=O (configuration not stated)
inactive

Tell me the recorded outcome of this test for Nc1nc(N)c(N)c(Nc2ccc(CCO)cc2)n1 .
inactive

Identify the outcome logged in this assay for the compound shown: CS(=O)(=O)c1nccc(-c2c(-c3cccc(OCCc4ccccc4)c3)nc3sccn23)n1
inactive
